molecular target: 5-hydroxytryptamine receptor 2A (Homo sapiens)
Sequence (P28223 whole entry): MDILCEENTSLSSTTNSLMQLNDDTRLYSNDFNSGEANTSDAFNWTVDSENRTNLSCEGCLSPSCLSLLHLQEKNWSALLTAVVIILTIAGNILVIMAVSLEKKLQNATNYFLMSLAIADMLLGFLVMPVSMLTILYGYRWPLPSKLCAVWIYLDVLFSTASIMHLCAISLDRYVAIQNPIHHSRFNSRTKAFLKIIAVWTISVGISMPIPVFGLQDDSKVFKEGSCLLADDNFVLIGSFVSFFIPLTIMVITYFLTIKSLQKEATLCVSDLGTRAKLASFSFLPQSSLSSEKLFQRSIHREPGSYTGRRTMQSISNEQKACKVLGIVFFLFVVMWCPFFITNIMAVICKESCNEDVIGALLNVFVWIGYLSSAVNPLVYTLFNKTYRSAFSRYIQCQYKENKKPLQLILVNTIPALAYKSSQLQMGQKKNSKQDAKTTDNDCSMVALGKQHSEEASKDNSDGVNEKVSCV
pKi: −log10 of the molar value.
Label condition met when pKi is at or above 7; otherwise label condition not met.

Example entries begin here.
# mol, target_system, assigned_category
data = [
    ("CNCCCC1c2ccccc2Cc2ccccc21", "5-hydroxytryptamine receptor 2A (Homo sapiens)", "condition met"),
    ("NC1c2ccccc2Cc2ccccc21", "5-hydroxytryptamine receptor 2A (Homo sapiens)", "condition not met"),
    ("C[N+](C)(C)CC1c2ccccc2Cc2ccccc21", "5-hydroxytryptamine receptor 2A (Homo sapiens)", "condition not met"),
    ("NCCCC1c2ccccc2Cc2ccccc21", "5-hydroxytryptamine receptor 2A (Homo sapiens)", "condition met"),
]

Now, please, on to the next compound.
Check this compound for pKi at or above 7: CNCC1c2ccccc2Cc2ccccc21 condition met

###

molecular target: Sodium-dependent serotonin transporter (Mus musculus, UniProt Q60857); test: Binding affinity to Serotonin transporter using [3H]-paroxetine as radioligand in stably transfected NIH3T3 cells
Sequence (Q60857 whole entry): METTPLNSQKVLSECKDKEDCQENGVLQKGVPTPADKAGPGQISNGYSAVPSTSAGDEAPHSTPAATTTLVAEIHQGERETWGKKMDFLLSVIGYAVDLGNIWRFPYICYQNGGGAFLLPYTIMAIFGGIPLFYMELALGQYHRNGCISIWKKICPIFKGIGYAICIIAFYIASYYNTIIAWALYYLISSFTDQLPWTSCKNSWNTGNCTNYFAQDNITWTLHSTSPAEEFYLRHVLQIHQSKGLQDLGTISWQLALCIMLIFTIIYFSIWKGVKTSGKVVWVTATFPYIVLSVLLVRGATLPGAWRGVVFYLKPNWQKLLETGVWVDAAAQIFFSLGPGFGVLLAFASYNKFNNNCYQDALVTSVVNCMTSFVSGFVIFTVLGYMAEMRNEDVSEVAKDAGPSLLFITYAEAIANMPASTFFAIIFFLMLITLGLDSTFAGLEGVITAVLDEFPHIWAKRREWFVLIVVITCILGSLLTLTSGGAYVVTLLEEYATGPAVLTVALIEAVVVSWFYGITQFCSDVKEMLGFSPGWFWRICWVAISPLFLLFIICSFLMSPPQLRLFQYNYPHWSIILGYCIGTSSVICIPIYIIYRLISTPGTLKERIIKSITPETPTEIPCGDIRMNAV
endpoint: Ki (µM)
Report the value in µM with no unit label.

// Ki lookup, key: CN1CCC(=C2c3ccccc3C=Cc3ccccc32)CC1 4.1

###

Target: UniProtKB P34968
Sequence (P34968 whole entry): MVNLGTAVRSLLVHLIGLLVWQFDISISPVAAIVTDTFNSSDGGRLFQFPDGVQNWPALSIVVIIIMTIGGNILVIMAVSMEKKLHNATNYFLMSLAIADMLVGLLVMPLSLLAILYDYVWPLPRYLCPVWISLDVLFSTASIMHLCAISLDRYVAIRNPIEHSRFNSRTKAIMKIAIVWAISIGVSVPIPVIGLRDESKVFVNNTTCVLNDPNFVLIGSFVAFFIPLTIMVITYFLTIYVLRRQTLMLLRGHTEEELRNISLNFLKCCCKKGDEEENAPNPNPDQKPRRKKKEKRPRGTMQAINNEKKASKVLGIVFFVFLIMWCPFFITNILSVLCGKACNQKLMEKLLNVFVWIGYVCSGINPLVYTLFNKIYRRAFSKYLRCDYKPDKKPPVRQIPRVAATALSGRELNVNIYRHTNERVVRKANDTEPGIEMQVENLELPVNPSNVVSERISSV
Assay: Binding affinity to 5-hydroxytryptamine 2C receptor using [3H]Mesulergine as radioligand in stably transfected NIH3T3 cells
Format: cell-based
endpoint: Ki (nM)
Number in nM, nothing else.

Param item = CN1CCC(=C2c3ccccc3C=Cc3ccccc32)CC1 ; retrieve measured Ki. 11

###

biological target: Sodium-dependent noradrenaline transporter (Mus musculus, UniProt O55192); assay: Binding affinity to Norepinephrine transporter using [3H]-[…] as radioligand in stably transfected NIH3T3 cells
Sequence (O55192 whole entry): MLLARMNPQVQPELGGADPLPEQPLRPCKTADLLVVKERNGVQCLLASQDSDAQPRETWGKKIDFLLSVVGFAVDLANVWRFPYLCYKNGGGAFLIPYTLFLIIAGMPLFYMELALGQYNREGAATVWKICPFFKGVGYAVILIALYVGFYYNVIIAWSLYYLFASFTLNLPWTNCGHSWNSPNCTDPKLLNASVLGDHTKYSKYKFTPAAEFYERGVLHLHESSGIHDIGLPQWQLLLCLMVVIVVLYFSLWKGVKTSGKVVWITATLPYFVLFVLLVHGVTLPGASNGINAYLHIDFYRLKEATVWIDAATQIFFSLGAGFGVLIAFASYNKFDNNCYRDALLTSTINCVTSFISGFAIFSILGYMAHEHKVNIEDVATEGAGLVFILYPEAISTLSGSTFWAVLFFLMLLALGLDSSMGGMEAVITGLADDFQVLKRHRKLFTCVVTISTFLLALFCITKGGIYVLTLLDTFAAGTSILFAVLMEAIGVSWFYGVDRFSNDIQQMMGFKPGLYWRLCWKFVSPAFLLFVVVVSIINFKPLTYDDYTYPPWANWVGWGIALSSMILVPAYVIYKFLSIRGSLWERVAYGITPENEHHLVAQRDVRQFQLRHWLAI
endpoint: pKi
The read-out pKi is expressed as -log10 of concentration in moles per litre.

Please give the measured pKi for this compound: CN1CCC(=C2c3ccccc3C=Cc3ccccc32)CC1 6.54

###

5-hydroxytryptamine receptor 2A (Homo sapiens): reported Ki for various compounds.
Use nM as the unit, but write only the number.

Some compounds with known Ki results, for comparison:
# mol, target_system, endpoint, experimental_result
data = [
    ("CN(C)CCCC1c2ccccc2Cc2ccccc21", "5-hydroxytryptamine receptor 2A (Homo sapiens)", "Ki", 22),
    ("c1ccc(CNCC2c3ccccc3Cc3ccccc32)cc1", "5-hydroxytryptamine receptor 2A (Homo sapiens)", "Ki", 721),
]

Which measured Ki value corresponds to NCCC1c2ccccc2Cc2ccccc21 ? 480
